So I've got a bunch of compounds here, and I need their chromatographic logP values.
protocol notes: physchem
experimental conditions: logP
Give bare numbers.

Use these answered entries as a reference point.
CNC(=O)/C(=N/OC)c1ccc(F)cc1Oc1ncnc(Oc2ccc(OC(F)(F)F)cc2C)c1F [Example 38]    3.71
CNC(=O)/C(=N/OC)c1ccc(F)cc1Oc1ncnc(Oc2cc(C)ccc2Cl)c1F [Example 25]    3.45
CNC(=O)/C(=N/OC)c1ccc(F)cc1Oc1ncnc(Oc2ccc(Br)cc2C)c1F [Example 37]    3.57
CNC(=O)/C(=N/OC)c1ccc(F)cc1Oc1ncnc(Oc2cccc(Cl)c2Cl)c1F [Example 33]    3.53
CNC(=O)/C(=N/OC)c1ccc(F)cc1Oc1ncnc(Oc2cccc(OC)c2)c1F [Example 19]    2.91

Answer for every listed entry: what is its chromatographic logP? The entries follow.
1. CNC(=O)/C(=N/OC)c1c(F)cccc1CO/N=C1\CCc2ccc(OC)cc21 [Example 52]
2. CO/N=C(/C(=O)OC)c1c(F)cccc1Oc1ncnc(Oc2ccccc2Cl)c1F [Example 14]

Response given:
1: 3.08; 2: 3.73

Challenge: Given CNC(=O)/C(=N/OC)c1ccc(F)cc1Oc1ncnc(Oc2cccc(F)c2)c1F [Example 17] , state its recorded chromatographic logP.
Response given: 3.07

====

protocol notes: physchem
experimental conditions: pH 2, log P (pH 2)
So I've got a bunch of compounds here, and I need their chromatographic logP values.
Give bare numbers.

CO/N=C(/C(=O)OC)c1c(F)cccc1Oc1ccccc1    3.24

Answer for every listed entry: what is its chromatographic logP? The entries follow.
1. CNC(=O)/C(=N/OC)c1ccc(F)cc1O
2. CO/N=C(/C(=O)OC)c1c(O)cccc1F
3. CO/N=C(/C(=O)OC)c1c(F)cccc1Oc1ncnc(Oc2cccc(Cl)c2C)c1F
4. CNC(=O)/C(=N/OC)c1c(F)cccc1COc1ccccc1C
5. COC(=O)C(=O)c1ccc(F)cc1O

Response given:
1. 1.56
2. 1.67
3. 4.23
4. 3.03
5. 2.1

====

protocol notes: physchem
experimental conditions: pH 2, log P (pH 2)
observable: chromatographic logP
Answers are plain numbers.

CNC(=O)/C(=N/OC)c1c(O)cccc1F    1.18
CO/N=C(/C(=O)OC)c1c(C)cccc1F    2.43
CNC(=O)/C(=N/OC)c1c(F)cccc1Oc1ccccc1    2.56
CNC(=O)/C(=N/OC)c1ccc(F)cc1Oc1ncnc(Oc2ccccc2Cl)c1F    3.14
COC(=O)C(=O)c1c(C)cccc1F    2.44
CNC(=O)/C(=N/OC)c1c(F)cccc1Oc1ncnc(Oc2ccccc2Cl)c1F    3.1

Answer for every listed entry: what is its chromatographic logP? The entries follow.
1. CO/N=C(/C(=O)OC)c1ccc(F)cc1O
2. CO/N=C(/C(=O)OC)c1c(F)cccc1COc1ccccc1C
3. CO/N=C(/C(=O)OC)c1c(F)cccc1CBr
4. COC(=O)C(=O)c1c(F)cccc1OC1CCCCO1 (stereo not shown)

Response given:
[2.62, 3.65, 2.58, 2.78]

====

protocol notes: physchem
experimental conditions: logP
Label criterion not met if chromatographic logP falls below 4; label criterion met in every other case.

Examples with answers:
CO/N=C(\C(=O)OC)c1c(F)cccc1Oc1ncnc(Oc2cccc(Cl)c2C)c1F [Example 42]    criterion met
CO/N=C(/C(=O)OC)c1c(F)cccc1CO/N=C1\CCc2ccc(OC)cc21 [Example 49]    criterion not met
CNC(=O)/C(=N/OC)c1ccc(F)cc1Oc1ncnc(Oc2ccccc2OC)c1F [Example 20]    criterion not met
CNC(=O)/C(=N/OC)c1ccc(F)cc1Oc1ncnc(Oc2ccccc2OC(F)(F)F)c1F [Example 35]    criterion not met
CNC(=O)/C(=N/OC)c1c(F)cccc1CO/N=C(C)/C(=N\OC)c1ccc(F)cc1F [Example 55]    criterion not met
CNC(=O)/C(=N/OC)c1c(F)cccc1CO/N=C(C)/C(=N\OC)c1ccc(F)cc1 [Example 59]    criterion not met

Challenge: Determine whether measured chromatographic logP meets or exceeds 4 for CO/N=C(\C(=O)OC)c1c(F)cccc1Oc1ccccc1 [Example 43]
Response given: criterion not met

Challenge: Determine whether measured chromatographic logP meets or exceeds 4 for CNC(=O)/C(=N/OC)c1c(F)cccc1Oc1nccc(OCC(F)(F)C(F)(F)F)n1 [Example 44]
Response given: criterion not met

Challenge: Determine whether measured chromatographic logP meets or exceeds 4 for CNC(=O)/C(=N/OC)c1ccc(F)cc1Oc1ncnc(Oc2ccccc2C)c1F [Example 15]
Response given: criterion not met

Challenge: Determine whether measured chromatographic logP meets or exceeds 4 for CO/N=C(\C(C)=N\OCc1cccc(F)c1/C(=N\OC)C(=O)OC)c1ccc(F)cc1F [Example 54]
Response given: criterion met

====

So I've got a bunch of compounds here, and I need their chromatographic logP values.
protocol notes: physchem
experimental conditions: logP
Give bare numbers.

Use these answered entries as a reference point.
CNC(=O)/C(=N/OC)c1c(F)cccc1Oc1ncnc(Oc2cccc(Cl)c2Cl)c1F    3.5
CNC(=O)/C(=N/OC)c1ccc(F)cc1Oc1ncnc(Oc2ccc(SC(F)(F)F)cc2)c1F    3.75
CNC(=O)/C(=N/OC)c1ccc(F)cc1Oc1ncnc(Oc2ccc(C(F)(F)F)cc2)c1F    3.49
CO/N=C(/C(=O)OC)c1c(F)cccc1Oc1cc(C(F)(F)F)ncn1    2.91
CNC(=O)/C(=N/OC)c1ccc(F)cc1Oc1nc(C)c(Cl)c(OCC(F)(F)C(F)(F)F)n1    3.58
CNC(=O)/C(=N/OC)c1ccc(F)cc1Oc1ncnc(Oc2ccccc2F)c1F    3.03
CNC(=O)/C(=N/OC)c1ccc(F)cc1Oc1ncnc(Oc2ccc(OC)cc2Cl)c1F    3.2

Let's switch to this compound now.
Challenge: Given CNC(=O)/C(=N/OC)c1ccc(F)cc1Oc1ncnc(Oc2cccc(OC(F)(F)F)c2)c1F , state its recorded chromatographic logP.
Response given: 3.46

====

protocol notes: logP determination by HPLC (EEC Directive 79/831 Annex V.A8)
experimental conditions: pH 2
observable: chromatographic logP
Give bare numbers.

Challenge: Given Cc1cccc(F)c1C(=O)C#N [Example (XX-1), 2-fluoro-6-methylbenzoyl cyanide] , state its recorded chromatographic logP.
Response given: 2.55

====

protocol notes: physchem
experimental conditions: logP
// NB: equality with 3 counts as label 0; only chromatographic logP strictly below is label 1

Examples with answers:
CNC(=O)/C(=N/OC)c1c(F)cccc1Oc1cc(Oc2ccccc2Cl)ncn1 [Example 47]    label 1
CNC(=O)/C(=N/OC)c1c(F)cccc1Oc1cc(Oc2cccc(Cl)c2C)ncn1 [Example 57]    label 0

Challenge: Answer whether the molecule CO/N=C(/C(=O)OC)c1c(F)cccc1Oc1ncnc(Oc2cccc(Cl)c2Cl)c1F [Example 12] has chromatographic logP strictly less than 3
Response given: label 0

Challenge: Answer whether the molecule CNC(=O)/C(=N/OC)c1ccc(F)cc1Oc1ncnc(Oc2cccc(Cl)c2C)c1F [Example 10] has chromatographic logP strictly less than 3
Response given: label 0

Challenge: Answer whether the molecule CNC(=O)/C(=N/OC)c1ccc(F)cc1Oc1ncnc(Oc2ccc(F)cc2Cl)c1F [Example 26] has chromatographic logP strictly less than 3
Response given: label 0

====

protocol notes: physchem
experimental conditions: logP
So I've got a bunch of compounds here, and I need their chromatographic logP values.

CO/N=C(/C(=O)OC)c1c(F)cccc1CO/N=C(\C)c1cccc(C(F)(F)F)c1 [Example 50]    4.27
CNC(=O)/C(=N/OC)c1ccc(F)cc1Oc1ncnc(Oc2cccc(C#N)c2)c1F [Example 18]    2.71
CNC(=O)/C(=N/OC)c1ccc(F)cc1Oc1ncnc(Oc2ccccc2OC(C)C)c1F [Example 27]    3.32

Answer for every listed entry: what is its chromatographic logP? The entries follow.
1. CNC(=O)/C(=N/OC)c1ccc(F)cc1Oc1ncnc(Oc2cccc(C(F)(F)F)c2)c1F [Example 30]
2. CNC(=O)/C(=N\OC)c1c(F)cccc1Oc1ccccc1 [Example 41]
3. CNC(=O)/C(=N/OC)c1c(F)cccc1CO/N=C(C)/C(=N\OC)c1ccc(C)cc1 [Example 58]

Response given:
1. 3.46
2. 2.49
3. 3.71

Challenge: Given CNC(=O)/C(=N\OC)c1c(F)cccc1CO/N=C(\C)c1cccc(C(F)(F)F)c1 [Example 56] , state its recorded chromatographic logP.
Response given: 3.8

====

So I've got a bunch of compounds here, and I need their chromatographic logP values.
protocol notes: physchem
experimental conditions: logP
Answers are plain numbers.

Use these answered entries as a reference point.
CNC(=O)/C(=N/OC)c1c(F)cccc1CO/N=C(\C)c1cccc(C(F)(F)F)c1    3.71
CNC(=O)/C(=N/OC)c1ccc(F)cc1Oc1ncnc(Oc2cccc(Cl)c2)c1F    3.31
CNC(=O)/C(=N/OC)c1ccc(F)cc1Oc1ncnc(Oc2ccccc2SC)c1F    3.07
CNC(=O)/C(=N/OC)c1ccc(F)cc1Oc1ncnc(Oc2ccc(SC)cc2)c1F    3.24
CNC(=O)/C(=N/OC)c1ccc(F)cc1Oc1ncnc(Oc2ccc(Cl)cc2)c1F    3.32
CNC(=O)/C(=N/OC)c1ccc(F)cc1Oc1ncnc(Oc2ccccc2Br)c1F    3.22
CNC(=O)/C(=N/OC)c1ccc(F)cc1Oc1ncnc(Oc2ccccc2C(F)(F)F)c1F    3.26
CNC(=O)/C(=N/OC)c1ccc(F)cc1Oc1ncnc(Oc2ccccc2C#N)c1F    2.68

Answer for every listed entry: what is its chromatographic logP? The entries follow.
1. CNC(=O)/C(=N/OC)c1ccc(F)cc1Oc1nccc(OCC(F)(F)C(F)(F)F)n1
2. CNC(=O)/C(=N/OC)c1ccc(F)cc1Oc1ncnc(Oc2ccc(SC)c(C)c2)c1F
3. CNC(=O)/C(=N/OC)c1c(F)cccc1Oc1ncnc(Oc2cccc(Cl)c2C)c1F
4. CNC(=O)/C(=N/OC)c1c(F)cccc1Oc1cc(Oc2cccc(Cl)c2Cl)ncn1

Response given:
[2.87, 3.54, 3.6, 3.23]
